// data source = patent US8148391B2

# TARGET_SYSTEM: c-Met (cytoplasmic domain) (Homo sapiens)
# Construct: 10 ng/mL c-Met (cytoplasmic domain, Invitrogen Corporation #PV3143); purchased Invitrogen Corporation PV3143
# Sequence (P08581 956-1390 limits assumed): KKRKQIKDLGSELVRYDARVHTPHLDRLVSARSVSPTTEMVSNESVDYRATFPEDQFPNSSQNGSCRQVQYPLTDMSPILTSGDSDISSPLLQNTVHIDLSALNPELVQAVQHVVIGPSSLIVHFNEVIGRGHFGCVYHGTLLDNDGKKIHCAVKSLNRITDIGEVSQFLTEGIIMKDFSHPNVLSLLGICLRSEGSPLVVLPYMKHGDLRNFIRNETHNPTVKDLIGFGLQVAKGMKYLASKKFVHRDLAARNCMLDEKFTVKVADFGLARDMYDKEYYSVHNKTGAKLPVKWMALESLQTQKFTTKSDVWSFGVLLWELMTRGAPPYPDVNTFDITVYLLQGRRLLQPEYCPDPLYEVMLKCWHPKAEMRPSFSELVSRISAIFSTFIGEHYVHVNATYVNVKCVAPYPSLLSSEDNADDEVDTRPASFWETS
# ASSAY_METHOD_TEXT: c-Met Kinase Assay (same methods as for ALK, with modifications)
# Format: biochemical
# EXPERIMENTAL_CONTEXT: c-Met kinase inhibition, 1 μM ATP; read-out: cMet Activity
pIC50: −log10 of the molar value.
QUANTITY: pIC50

| MOLECULE | REPORTED_VALUE |
| --- | --- |
| CCN1CCNC(=O)c2ccc(Nc3ncc(Cl)c(Nc4ccccc4OCCN4CCOCC4)n3)cc21 | < 5.00 |
| CNC(=O)c1cc(C)cc(C)c1Nc1nc(Nc2ccc3c(c2)CCOC(=O)N3C)ncc1Cl | > 7.00 |
| CN1C(=O)OCCc2cc(Nc3ncc(Cl)c(Nc4cccc5[nH]ncc45)n3)ccc21 | 6.00 to 7.00 |
| COc1cc2c(cc1Nc1ncc(Cl)c(Nc3ccccc3S(=O)(=O)N(C)C)n1)CCN(CCOC(=O)[C@@H](N)C(C)C)CC2 | 5.00 to 6.00 |
| COc1cc2c(cc1Nc1ncc(Cl)c(N[C@H]3[C@@H](C(N)=O)[C@@H]4C=C[C@H]3C4)n1)CCN(CCN1CCOCC1)CC2 | < 5.00 |
| CCN1C(=O)CCC(C)(C)c2ccc(Nc3ncc(Cl)c(Nc4ccc(N5CCOCC5)cc4OC)n3)cc21 | 5.00 to 6.00 |
| CNC(=O)c1cccc(Cl)c1Nc1nc(Nc2ccc3c(c2)-n2ccnc2CCC3)ncc1Cl | 6.00 to 7.00 |
| CCN1C(=O)C(NC(=O)CN(C)C)CCc2ccc(Nc3ncc(Cl)c(Nc4c(F)cccc4C(=O)NC)n3)cc21 (stereo not drawn) | > 7.00 |
| CCN1CC(=O)N(CC)c2cc(Nc3ncc(Cl)c(Nc4c(C)csc4C(=O)NC)n3)ccc2C1 | > 7.00 |
| CCN1C(=O)CN(C(C)=O)Cc2ccc(Nc3ncc(Cl)c(Nc4c(C)csc4C(=O)NC)n3)cc21 | > 7.00 |
| COc1cc2c(cc1Nc1ncc(Cl)c(Nc3ccccc3S(=O)(=O)N3CCCC3)n1)CCN(CCO)CC2 | 5.00 to 6.00 |
| CNC(=O)c1cccc(F)c1Nc1nc(Nc2ccc3c(c2)N(CCN2CCCC2)CCCC3(C)C)ncc1Cl | 6.00 to 7.00 |
| CNC(=O)c1cccc(F)c1Nc1nc(Nc2ccc3c(c2)NCCCC3(C)C)ncc1Cl | > 7.00 |
| COc1cc2c(cc1Nc1ncc(Cl)c(Nc3ccccc3S(=O)(=O)N3CC[C@@H](O)C3)n1)CCN(CC(C)(C)O)CC2 | 5.00 to 6.00 |
| CNC(=O)c1ccc2c(c1Nc1nc(Nc3ccc4c(c3)CCCC(=O)N4C)ncc1Cl)OCO2 | 5.00 to 6.00 |
| CNC(=O)c1scc(C)c1Nc1nc(Nc2ccc3c(c2)NC(=O)CN(C(=O)C(F)(F)F)C3)ncc1Cl | 6.00 to 7.00 |
| COc1cc2c(cc1Nc1ncc(Cl)c(N[C@@H]3CCCC[C@H]3NS(C)(=O)=O)n1)NC(=O)CN(Cc1ccccc1)C2 | < 5.00 |
| C#CCNC(=O)c1cccc(F)c1Nc1nc(Nc2ccc3c(c2)N(C(C)C)CCCO3)ncc1Cl | 6.00 to 7.00 |
